- target: human JAK1 (a.a. 837-1142) (Homo sapiens)
- Construct: The catalytic domains of human JAK1 (a.a. 837-1142); His tag (N); made in house; host or cells: insect cells (baculovirus)
- Sequence (P23458 849-1154): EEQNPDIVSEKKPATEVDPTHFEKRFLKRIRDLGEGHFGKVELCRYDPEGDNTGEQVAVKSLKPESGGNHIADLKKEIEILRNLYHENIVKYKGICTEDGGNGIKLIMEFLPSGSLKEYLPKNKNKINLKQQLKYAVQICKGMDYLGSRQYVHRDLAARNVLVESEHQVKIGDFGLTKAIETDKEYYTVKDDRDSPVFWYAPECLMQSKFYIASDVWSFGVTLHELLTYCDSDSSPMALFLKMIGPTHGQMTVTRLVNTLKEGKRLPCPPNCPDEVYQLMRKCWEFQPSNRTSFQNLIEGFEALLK
- experiment-summary: In vitro JAK kinase assay (HTRF, phosphorylation of biotinylated peptide), JAK1
- Assay type: biochemical
- condition: 1 mM ATP; Examples 12-91; read-out: JAK1 IC50 (nM) @ 1 mM ATP
Counter-ions that a name gives are not always drawn.
Reported IC50 by item:

Please review the following examples before continuing.
> print(dat)
                                   compound       result
1  N#CCC(CN1CCN(C(=O)c2cc(C(F)(F)F)ccc2F)CC1)n1cc(-c2ncnc3[nH]ccc23)cn1 (centres unmarked) [Example 32]      < 10 nM
2  N#CCC(CN1CCN(C(=O)c2ccc(F)c(C(F)(F)F)c2)CC1)n1cc(-c2ncnc3[nH]ccc23)cn1 (centres unmarked) [Example 57]  10 to 50 nM

Which value of IC50 has been reported for N#CCC(CN1CCN(C(=O)c2ncc(Cl)cc2F)CC1)n1cc(-c2ncnc3[nH]ccc23)cn1 (centres unmarked) [Example 16] in the records?
< 10 nM

Consider the compound shown here: C[C@@H]1CN(C(=O)c2ccc(C#N)cc2F)CCN1CC(CC#N)n1cc(-c2ncnc3[nH]ccc23)cn1 (single isomer, unassigned) [24, R-1] What is its recorded IC50?
< 10 nM

State the recorded IC50 for this entry: N#CCC(CN1CCN(S(=O)(=O)c2ccccc2C(F)(F)F)CC1)n1cc(-c2ncnc3[nH]ccc23)cn1 (centres unmarked) [Example 66]
< 10 nM

Which IC50 value belongs to N#CCC(CN1CCN(C(=O)c2ccc(C(F)(F)F)c(F)c2)CC1)n1cc(-c2ncnc3[nH]ccc23)cn1 (centres unmarked) [Example 56] ?
10 to 50 nM

For the compound shown here, N#CCC(CN1CCN(C(=O)c2ccc(O)cc2F)CC1)n1cc(-c2ncnc3[nH]ccc23)cn1 (centres unmarked) [Example 31, trifluoroacetate salt] , give the reported IC50.
< 10 nM

Endpoint output: IC50 of N#CCC(CN1CCN(C(=O)c2ccc(C#N)cn2)CC1)n1cc(-c2ncnc3[nH]ccc23)cn1 (centres unmarked) [Example 20] . Value?
10 to 50 nM

What does the data say about its IC50? Entry: N#CCC(CN1CCN(C(=O)c2c(F)cc(C#N)cc2F)CC1)n1cc(-c2ncnc3[nH]ccc23)cn1 (centres unmarked) [Example 15, phosphate Salt]
< 10 nM

Dear colleague, I am looking for the recorded IC50 of the following compound: COc1cc(C(=O)N2CCN(CC(CC#N)n3cc(-c4ncnc5[nH]ccc45)cn3)CC2)ccc1F (centres unmarked) [Example 43]
< 10 nM

Dear colleague, I am looking for the recorded IC50 of the following compound: N#CCC(CN1CCN(C(=O)c2ccc(F)cc2)CC1)n1cc(-c2ncnc3[nH]ccc23)cn1 (centres unmarked) [Example 36]
< 10 nM

Bench note: what IC50 did N#CCC(CN1CCN(C(=O)c2ncc(C(F)(F)F)cc2F)CC1)n1cc(-c2ncnc3[nH]ccc23)cn1 (centres unmarked) [Example 19] show?
10 to 50 nM

Could you share which IC50 value was measured for N#CCC(CN1CCN(S(=O)(=O)c2cccs2)CC1)n1cc(-c2ncnc3[nH]ccc23)cn1 (centres unmarked) [Example 67] ?
< 10 nM

Which measured IC50 value corresponds to N#CCC(CN1CCN(C(=O)c2ccc(F)cc2Cl)CC1)n1cc(-c2ncnc3[nH]ccc23)cn1 (centres unmarked) [Example 39] ?
< 10 nM

Endpoint output: IC50 of N#CCC(CN1CCN(C(=O)c2ccc(Cl)cc2F)CC1)n1cc(-c2ncnc3[nH]ccc23)cn1 (centres unmarked) [Example 26] . Value?
< 10 nM

I am curious: what IC50 value has been reported for N#CCC(CN1CCN(C(=O)Nc2ccc(F)cc2F)CC1)n1cc(-c2ncnc3[nH]ccc23)cn1 (centres unmarked) [Example 72] ?
10 to 50 nM

I have this compound here, N#CCC(CN1CCN(C(=O)Nc2ccccc2C(F)(F)F)CC1)n1cc(-c2ncnc3[nH]ccc23)cn1 (centres unmarked) [Example 76] , and I need its recorded IC50.
10 to 50 nM

These entries and their values trace back to patent US9249145B2.
